As shown below, each of these compounds has a reported IC50 value.
- System: BACE-2 (Homo sapiens, UniProt Q9Y5Z0)
- Construct: Recombinant BACE-2 (extracellular domain, expressed in baculovirus and purified using standard methods)
- Sequence (Q9Y5Z0 63-473 limits assumed): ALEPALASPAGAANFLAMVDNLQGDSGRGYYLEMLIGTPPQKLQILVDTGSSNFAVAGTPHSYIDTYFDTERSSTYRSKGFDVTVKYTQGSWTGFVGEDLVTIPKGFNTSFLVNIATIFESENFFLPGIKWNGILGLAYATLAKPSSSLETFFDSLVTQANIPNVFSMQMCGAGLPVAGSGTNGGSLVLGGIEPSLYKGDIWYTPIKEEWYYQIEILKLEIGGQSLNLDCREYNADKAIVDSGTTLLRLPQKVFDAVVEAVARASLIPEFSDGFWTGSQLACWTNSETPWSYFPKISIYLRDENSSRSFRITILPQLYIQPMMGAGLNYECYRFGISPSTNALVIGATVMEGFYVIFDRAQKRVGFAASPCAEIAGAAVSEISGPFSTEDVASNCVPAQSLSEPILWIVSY
- Assay overview: assay for inhibition of BACE-2
Counter-ions that a name gives are not always drawn.
Form entry: value (nM) — number only.

# Compound, IC50, nM
records = [
    ("CN1CC(N)=NC(C)(c2cc(NC(=O)c3ccc(Br)cn3)ccc2F)C1=O (stereo not drawn) [Example 186]", 9110),
    ("NC1=N[C@@](c2cc(NC(=O)c3cnc(OCC(F)(F)F)cn3)ccc2F)(C(F)F)COC1 [Example 124]", 1630),
    ("Cc1nc(C(=O)Nc2ccc(F)c([C@]3(C(F)F)COCC(N)=N3)c2)cs1 [Example 148]", 287),
    ("NC1=N[C@@](c2cc(NC(=O)c3cnc(O)cn3)ccc2F)(C(F)F)COC1 [Example 145]", 697),
]

Now look at this entry.
Sample CC1(c2cccc(NC(=O)c3cn4ccccc4n3)c2)COCC(N)=N1 (stereo not drawn) [Example 8, hydrochloride] ; IC50 observed: 7230
